# System: Vero cells
# method: Cytotoxicity assay in Vero cells
# Format: cell-based
# condition: Table 2, read-out: Cytotoxicity in different cells (IC50, μM) Vero
As shown below, each of these molecules has a reported IC50 value.
Your answer should be a plain number; it is taken to be in µM.

O=C(Nc1nc(=O)n([C@H]2C=C[C@@H](CO)O2)cc1F)c1cccnc1 [Compound 55] ... 13.1
COc1ccccc1C(=O)Nc1nc(=O)n([C@H]2C=C[C@@H](CO)O2)cc1F [Compound 44] ... 5.6

Problem: Given the entry O=C(Nc1nc(=O)n([C@H]2C=C[C@@H](CO)O2)cc1F)c1cccs1 [Compound 54] , report its measured IC50.
Solution: 4.8

###

As shown below, each of these molecules has a reported IC50 value.
# method: Cytotoxicity assay in Vero cells
# Assay type: cell-based
# condition: African green monkey, Table 1, read-out: Cytotoxicity in different cells (IC50, μM) Vero

O=C(Nc1nc(=O)n([C@H]2CC[C@@H](CO)O2)cc1F)c1cc2ccccc2s1 ... 39.6 µM
O=C(Nc1nc(=O)n([C@H]2CC[C@@H](CO)O2)cc1F)C1CCCCC1 ... 11.8 µM
O=C(Nc1nc(=O)n([C@H]2CC[C@@H](CO)O2)cc1F)c1ccc(F)cc1 ... > 100 µM
O=C(Nc1nc(=O)n([C@H]2CC[C@@H](CO)O2)cc1F)c1ccc(I)cc1 ... > 100 µM
Cc1ccc(C(=O)Nc2nc(=O)n([C@H]3CC[C@@H](CO)O3)cc2F)cc1 ... > 100 µM

Problem: Given the entry O=C(Nc1nc(=O)n([C@H]2CC[C@@H](CO)O2)cc1F)c1cccc(F)c1 , report its measured IC50.
Solution: > 100 µM

Problem: Given the entry O=C(Nc1nc(=O)n([C@H]2CC[C@@H](CO)O2)cc1F)c1ccc(Cl)cc1 , report its measured IC50.
Solution: > 100 µM

Problem: Given the entry CCc1ccc(C(=O)Nc2nc(=O)n([C@H]3CC[C@@H](CO)O3)cc2F)cc1 , report its measured IC50.
Solution: > 100 µM

###

# Test system: Vero cells
# method: Cytotoxicity assay in Vero cells
# Assay type: cell-based
# condition: Table 2, read-out: Cytotoxicity in different cells (IC50, μM) Vero
experimental.readout: IC50

Past entries and their recorded results:
CCCC(=O)Nc1nc(=O)n([C@H]2C=C[C@@H](CO)O2)cc1F ... > 100 µM
O=C(Nc1nc(=O)n([C@H]2C=C[C@@H](CO)O2)cc1F)c1cccc(Br)c1 ... 99.7 µM
Cc1ccccc1C(=O)Nc1nc(=O)n([C@H]2C=C[C@@H](CO)O2)cc1F ... > 100 µM
O=C(Nc1nc(=O)n([C@H]2C=C[C@@H](CO)O2)cc1F)c1ccccc1[N+](=O)[O-] ... > 100 µM
CCc1ccc(C(=O)Nc2nc(=O)n([C@H]3C=C[C@@H](CO)O3)cc2F)cc1 ... 40.3 µM
O=C(Nc1nc(=O)n([C@H]2C=C[C@@H](CO)O2)cc1F)c1cccc(F)c1 ... > 100 µM
O=C(Nc1nc(=O)n([C@H]2C=C[C@@H](CO)O2)cc1F)c1ccc([N+](=O)[O-])cc1 ... 6.6 µM

# next compound below
Problem: Given the entry COc1cccc(C(=O)Nc2nc(=O)n([C@H]3C=C[C@@H](CO)O3)cc2F)c1 , report its measured IC50.
Solution: > 100 µM
